Data origin, for the record: ChEMBL document CHEMBL1145905

biological target: Delta-type opioid receptor (Homo sapiens, UniProt P41143); test: Inhibitory activity against Opioid receptor delta 1 in chinese Hamster Ovary (CHO) cell membranes was determined using [3H]naltrindole radioligand
Sequence (P41143 whole entry): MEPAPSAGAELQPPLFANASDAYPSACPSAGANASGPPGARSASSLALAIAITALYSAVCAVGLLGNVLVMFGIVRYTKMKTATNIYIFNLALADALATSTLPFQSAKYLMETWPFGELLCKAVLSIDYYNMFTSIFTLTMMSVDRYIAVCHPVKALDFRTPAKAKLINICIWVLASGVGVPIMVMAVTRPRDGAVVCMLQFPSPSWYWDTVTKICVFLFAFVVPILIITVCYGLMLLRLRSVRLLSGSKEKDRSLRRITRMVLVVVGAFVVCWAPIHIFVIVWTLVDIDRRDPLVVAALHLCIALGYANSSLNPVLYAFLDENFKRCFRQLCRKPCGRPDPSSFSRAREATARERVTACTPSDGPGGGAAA
Listing of recorded Ki by entry.
Parameter: Ki (nM)

Smiles record	Parameter	Quantitative result
O=C(CCCCCCCC(=O)Oc1ccc2c(c1)[C@@]13CCCC[C@H]1[C@@H](C2)N(CC1CCC1)CC3)Oc1ccc2c(c1)[C@@]13CCCC[C@H]1[C@@H](C2)N(CC1CCC1)CC3	Ki	21
Oc1ccc2c(c1)[C@@]13CCCC[C@H]1[C@@H](C2)N(CCCCCCN1CC[C@]24CCCC[C@H]2[C@H]1Cc1ccc(O)cc14)CC3	Ki	370
O=C(CCCC(=O)Oc1ccc2c(c1)[C@@]13CCCC[C@H]1[C@@H](C2)N(CC1CCC1)CC3)Oc1ccc2c(c1)[C@@]13CCCC[C@H]1[C@@H](C2)N(CC1CCC1)CC3	Ki	80
O=C(CCCCCCCCCCC(=O)Oc1ccc2c(c1)[C@@]13CCCC[C@H]1[C@@H](C2)N(CC1CCC1)CC3)Oc1ccc2c(c1)[C@@]13CCCC[C@H]1[C@@H](C2)N(CC1CCC1)CC3	Ki	82
O=C(CCCCCCCCC(=O)Oc1ccc2c(c1)[C@@]13CCCC[C@H]1[C@@H](C2)N(CC1CC1)CC3)Oc1ccc2c(c1)[C@@]13CCCC[C@H]1[C@@H](C2)N(CC1CC1)CC3	Ki	32
COC(=O)CCCCCCCCC(=O)Oc1ccc2c(c1)[C@@]13CCCC[C@H]1[C@@H](C2)N(CC1CCC1)CC3	Ki	44
